// Tm lookup, one value per entry
# condition_description: Escherichia coli (strain K12); pH 7.5; Thermal; Intensity; HEPES 20mM; transition: 2; whole UniProt chain shown
Give the value, in units of °C, as a plain number.

Glucokinase wild type, P0A6V8 (protein) MTKYALVGDVGGTNARLALCDIASGEISQAKTYSGLDYPSLEAVIRVYLEEHKVEVKDGCIAIACPITGDWVAMTNHTWAFSIAEMKKNLGFSHLEIINDFTAVSMAIPMLKKEHLIQFGGAEPVEGKPIAVYGAGTGLGVAHLVHVDKRWVSLPGEGGHVDFAPNSEEEAIILEILRAEIGHVSAERVLSGPGLVNLYRAIVKADNRLPENLKPKDITERALADSCTDCRRALSLFCVIMGRFGGNLALNLGTFGGVFIAGGIVPRFLEFFKASGFRAAFEDKGRFKEYVHDIPVYLIVHDNPGLLGSGAHLRQTLGHIL	44.4
Mannosyl-3-phosphoglycerate phosphatase wild type, P76329 (protein) MFSIQQPLLVFSDLDGTLLDSHSYDWQPAAPWLTRLREANVPVILCSSKTSAEMLYLQKTLGLQGLPLIAENGAVIQLAEQWQEIDGFPRIISGISHGEISLVLNTLREKEHFKFTTFDDVDDATIAEWTGLSRSQAALTQLHEASVTLIWRDSDERMAQFTARLNELGLQFMQGARFWHVLDASAGKDQAANWIIATYQQLSGKRPTTLGLGDGPNDAPLLEVMDYAVIVKGLNREGVHLHDEDPARVWRTQREGPEGWREGLDHFFSAR	43.9
dTDP-4-dehydrorhamnose 3,5-epimerase wild type, P37745 (protein) MNVIRTEIEDVLILEPRVFGDDRGFFYESFNQSAFEHILGYPVSFVQDNHSRSSKNVLRGLHFQRGEYAQDKLVRCTHGAVFDVAVDIRPNSVSFGKWVGVLLSADNKQQLWIPKGFAHGFLVLSDIAEFQYKTTNYYHPESDCGICWNDERIAIDWPQTSGLILSPKDERLFTLDELIRLKLIA	44.2
Elongation factor P-like protein wild type, P0A6N8 (protein) MPRANEIKKGMVLNYNGKLLLVKDIDIQSPTARGAATLYKMRFSDVRTGLKVEERFKGDDIVDTVTLTRRYVDFSYVDGNEYVFMDKEDYTPYTFTKDQIEEELLFMPEGGMPDMQVLTWDGQLLALELPQTVDLEIVETAPGIKGASASARNKPATLSTGLVIQVPEYLSPGEKIRIHIEERRYMGRAD	43.5

Requested read-out: Tm. Entry: Probable ketoamine kinase YniA wild type, P77739 (protein) MWQAISRLLSEQLGEGEIELRNELPGGEVHAAWHLRYAGHDFFVKCDERELLPGFTAEADQLELLSRSKTVTVPKVWAVGADRDYSFLVMDYLPPRPLDAHSAFILGQQIARLHQWSDQPQFGLDFDNALSTTPQPNTWQRRWSTFFAEQRIGWQLELAAEKGIAFGNIDAIVEHIQQRLASHQPQPSLLHGDLWSGNCALGPDGPYIFDPACYWGDRECDLAMLPLHTEQPPQIYDGYQSVSPLPADFLERQPVYQLYTLLNRARLFGGQHLVIAQQSLDRLLAA
40.4
